test_description: Drug level in Wistar Hannover rat CSF at 30 mg/kg, po after 2 hrs by UPLC-MS analysis
Assay type: ADME, organism-based, Cerebrospinal fluid
measurement_setup: read-out: Drug uptake
reported_metric: concentration at 2 h (nM)
The reply should be a number in nM, with the unit left off.

Q: Suppose we examine the compound COCCOc1nc(-c2ccc(Cl)nc2)nc2c1CN(C(=O)c1ncn3ccccc13)CC2 ; what concentration at 2 h value has been reported?
Result: 20.1

###

test_description: Bioavailability in orally dosed dog after 2 hrs by UPLC-MS analysis
Type: ADME, organism-based, Canis lupus familiaris
measurement_setup: in vivo, route po
reported_metric: bioavailability
Answer by giving the amount and then stating its unit.

Q: Suppose we examine the compound COCCOc1nc(-c2ccc(Cl)nc2)nc2c1CN(C(=O)c1ncn3ccccc13)CC2 ; what bioavailability value has been reported?
Result: 79%
